molecules and their reported MIC
system: Staphylococcus aureus; test: Antibacterial activity against constitutive macrolide-lincosamide-streptogramin B resistant Staphylococcus aureus by agar microdilution method; type: functional
endpointLabel: MIC

1) CC[C@H]1OC(=O)[C@H](C)C(=O)[C@H](C)[C@@H](O[C@@H]2O[C@H](C)C[C@H](N(C)C)[C@H]2O)[C@](C)(OC)C[C@@H](C)C(=O)[C@H](C)[C@H]2N(CCCCn3cnc(-c4cccnc4)c3)C(=O)O[C@]12C    > 64 µg/mL
2) CC[C@H]1OC(=O)[C@@H](C)[C@H](O[C@@H]2C[C@](C)(OC)[C@H](OC(=O)CNCCCNCCOCCOCCNc3cc4c(=O)c(C(=O)O)cn(C5CC5)c4cc3Cl)[C@@H](C)O2)[C@H](C)[C@H](O[C@H]2O[C@@H](C)C[C@@H](N(C)C)[C@@H]2O)[C@@](C)(O)C[C@H](C)CN(C)[C@@H](C)[C@H](O)[C@@]1(C)O (stereo in doubt)    > 64 µg/mL
3) CCC1OC(=O)[C@H](C)[C@@H](O[C@H]2C[C@@](C)(OC)[C@@H](OC(=O)CNC(=O)CSc3cnc4ccccc4n3)[C@H](C)O2)C(C)[C@@H](O[C@@H]2O[C@H](C)C[C@H](N(C)C)[C@H]2O)[C@](C)(O)C[C@@H](C)CN(C)[C@H](C)[C@@H](O)[C@]1(C)O (single isomer, unassigned)    > 64 µg/mL

====

tested on: Streptococcus pyogenes; test: Antibacterial activity against inducibly macrolide-lincosamide-streptogramin B resistant Streptococcus pyogenes by agar microdilution method; format: functional
endpointLabel: MIC (µg/mL)

1) CC[C@H]1OC(=O)[C@@H](C)[C@H](O[C@H]2C[C@@](C)(OC)[C@@H](OC(=O)CN)[C@H](C)O2)[C@@H](C)[C@H](O[C@H]2O[C@@H](C)C[C@@H](N(C)C)[C@@H]2O)[C@@](C)(O)C[C@H](C)CN(C)[C@@H](C)[C@@H]2OC(=O)O[C@@]12C    32
2) CCC1OC(=O)[C@H](C)[C@@H](O[C@H]2C[C@@](C)(OC)[C@@H](OC(=O)CNCCCNCCNc3cc4c(cc3F)c(=O)c(C(=O)O)cn4C3CC3)[C@H](C)O2)C(C)[C@@H](O[C@@H]2O[C@H](C)C[C@H](N(C)C)[C@H]2O)[C@](C)(O)C[C@@H](C)CN(C)[C@H](C)[C@@H](O)[C@]1(C)O (single isomer, unassigned)    0.25
3) CC[C@H]1OC(=O)[C@@H](C)[C@H](O[C@@H]2C[C@](C)(OC)[C@H](OC(=O)CNC(=O)CCNCCOCCOCCNc3cc4c(=O)c(C(=O)O)cn(C5CC5)c4cc3Cl)[C@@H](C)O2)[C@H](C)[C@H](O[C@H]2O[C@@H](C)C[C@@H](N(C)C)[C@@H]2O)[C@@](C)(O)C[C@H](C)CN(C)[C@@H](C)[C@H](O)[C@@]1(C)O (stereo in doubt)    1

====

tested on: Streptococcus pyogenes; assay: Antibacterial activity against inducibly macrolide-lincosamide-streptogramin B resistant Streptococcus pyogenes by agar microdilution method; type: functional
endpointLabel: MIC

1. CCC1OC(=O)[C@H](C)[C@@H](O[C@H]2C[C@@](C)(OC)[C@@H](OC(=O)CNCCSc3cnc4ccccc4n3)[C@H](C)O2)C(C)[C@@H](O[C@@H]2O[C@H](C)C[C@H](N(C)C)[C@H]2O)[C@](C)(O)C[C@@H](C)CN(C)[C@H](C)[C@@H](O)[C@]1(C)O (single isomer, unassigned)    4 µg/mL
